Molecular target: recombinant human S1P1 receptor (Homo sapiens)
Sequence (P21453 whole entry): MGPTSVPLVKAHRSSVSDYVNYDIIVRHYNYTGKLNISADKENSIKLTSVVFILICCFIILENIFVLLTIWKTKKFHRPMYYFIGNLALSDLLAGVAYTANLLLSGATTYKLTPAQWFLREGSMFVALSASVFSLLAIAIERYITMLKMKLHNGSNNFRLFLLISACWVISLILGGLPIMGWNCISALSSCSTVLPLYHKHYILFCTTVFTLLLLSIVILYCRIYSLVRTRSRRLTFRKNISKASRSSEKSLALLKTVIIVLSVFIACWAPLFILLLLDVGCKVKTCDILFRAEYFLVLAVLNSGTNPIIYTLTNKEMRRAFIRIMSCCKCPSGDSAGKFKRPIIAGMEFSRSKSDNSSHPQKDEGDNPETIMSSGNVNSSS
Assay: GTPγS assay to determine EC50 values
Conditions: agonist-induced 35S-GTPγS binding, membranes of CHO cells expressing recombinant human S1P1 receptor
Experimental: GTPγS binding assays are performed in 96 well microtiter plates (Nunc, 442587) in a final volume of 200 μl, using membrane preparations of CHO cells expressing recombinant human S1P1 receptor. […] Membrane-bound ^35S-GTPγS is measured with a TopCount from Packard Biosciences. […]
pEC50: −log10 of the molar value.
measuredMetric: pEC50

compound: CCc1cc(-c2nc(-c3cnc(OC(C)C)c(C)c3)no2)cc(C)c1OC[C@@H](O)CO [Example 92]
measuredMetric: pEC50
measurement: 8.29
//
compound: CCc1cc(-c2noc(-c3cnc(OC(C)C)c(C)c3)n2)cc(C)c1OC[C@@H](O)CNC(=O)CO [Example 88]
measuredMetric: pEC50
measurement: 10.00
//
compound: Cc1cc(-c2noc(-c3cnc(OC(C)C)c(Cl)c3)n2)cc(C)c1OCC(O)CO (racemic) [Example 1]
measuredMetric: pEC50
measurement: 9.22
//
compound: CCc1cc(-c2noc(-c3cnc(OC(C)C)c(C)c3)n2)cc(C)c1CCC(=O)NCCO [Example 89]
measuredMetric: pEC50
measurement: 8.46
